Hey, just so you know, these numbers are from paper PMC4391719.

- Assay Details: Biodistribution of ^111In-labelled fragments in CD1 nu/nu mice without tumours
- Type: in vivo, mouse
- Applied Conditions: CD1 nu/nu, mouse, in vivo, iv, 100 kBq, total radioactivity, activity retained in the kidneys at the end of the experiment
Where a SMILES comes first, the peptide text is derived from it. The star is where a group is joined. NODAGA = O=C(O)CN1CCN(CC(=O)O)CCN(C(CCC(=O)*)C(=O)O)CC1
Assay Endpoint: tissue uptake at 4 h

For orientation, consider the following solved cases.
[
  {
    "Compound": "CC(C)[C@H](NC(=O)[C@H](C)NC(=O)[C@@H](N)CCC(=O)O)C(=O)N[C@@H](CCCCNC(=O)CCC(C(=O)O)N1CCN(CC(=O)O)CCN(CC(=O)O)CC1)C(N)=O (some centres unmarked) [CL1-F2] (H-EAVK(NODAGA)-NH2)",
    "Reported Value": "< 4 %ID/g"
  },
  {
    "Compound": "NC(=O)[C@@H](N)CCCCNC(=O)CCC(C(=O)O)N1CCN(CC(=O)O)CCN(CC(=O)O)CC1 (some centres unmarked)",
    "Reported Value": "< 4 %ID/g"
  },
  {
    "Compound": "NC(=O)[C@H](CCCCNC(=O)CCC(C(=O)O)N1CCN(CC(=O)O)CCN(CC(=O)O)CC1)NC(=O)[C@H](Cc1ccccc1)NC(=O)[C@@H](N)CC(=O)O (some centres unmarked)",
    "Reported Value": "< 4 %ID/g"
  },
  {
    "Compound": "NC(=O)[C@H](CCCCNC(=O)CCC(C(=O)O)N1CCN(CC(=O)O)CCN(CC(=O)O)CC1)NC(=O)[C@H](CO)NC(=O)[C@@H]1CCCN1C(=O)[C@@H]1CCCN1C(=O)[C@@H]1CCCN1C(=O)[C@@H](N)CCC(=O)O (some centres unmarked) [CL3-F2] (H-EPPPSK(NODAGA)-NH2)",
    "Reported Value": "< 4 %ID/g"
  }
]

Entry CC(C)[C@H](NC(=O)[C@H](C)NC(=O)[C@H](CCC(=O)O)NC(=O)[C@@H](N)CCC(=O)O)C(=O)N[C@@H](CCCCNC(=O)CCC(C(=O)O)N1CCN(CC(=O)O)CCN(CC(=O)O)CC1)C(N)=O (some centres unmarked) [CL1-F1] (H-EEAVK(NODAGA)-NH2) has what tissue uptake at 4 h? < 4 %ID/g

###

- Assay Details: Biodistribution of ^111In-labelled fragments in CD1 nu/nu mice without tumours
- Format: in vivo, mouse
- Applied Conditions: CD1 nu/nu, mouse, heart, iv, 100 kBq, total radioactivity, ^111In-labelled fragment ~100 kBq i.v. tail vein, mice without tumours, after 4 h; read-out: Biodistribution of fragment, Heart
- Method: Biodistribution of ^111In-PSI-CLNOD1, ^111In-PSI-CLNOD2, ^111In-PSI-CLNOD3 and ^111In-Ex4NOD40 were performed in CD 1 nu/nu mice with tumour xenografts that were prepared as previously described. […] Blood, heart, lungs, spleen, kidneys, pancreas, stomach, intestine, liver, muscle, bone and tumour were removed, weighted and activity determined in a γ-counter (Packard Cobra II Auto Gamma, Perkin Elmer, Switzerland). […]
Assay Endpoint: tissue uptake at 4 h (%ID/g)
Enter your answer as a number in %ID/g; do not include the unit.

Entry CSCC[C@H](NC(=O)[C@H](Cc1ccc(O)cc1)NC(=O)[C@@H](N)CC(=O)O)C(=O)NCC(=O)N[C@@H](Cc1c[nH]c2ccccc12)C(=O)N[C@@H](CCSC)C(=O)N[C@@H](CC(=O)O)C(=O)N[C@@H](Cc1ccccc1)C(=O)N[C@@H](CCCCNC(=O)CCC(C(=O)O)N1CCN(CC(=O)O)CCN(CC(=O)O)CC1)C(N)=O (stereo partly shown) has what tissue uptake at 4 h? 0.02
